# Test system: A375.S2 cell line
# test: SRB cytotoxicity assay, A375.S2 melanoma cell line
measured-quantity: IC50 (µM)

• CCn1cc(C(=O)O)c(=O)c2cc(F)c3c(nnn3-c3ccccc3OC)c21 [13a] = 535
• CCn1cc(C(=O)O)c(=O)c2cc(F)c3c(nnn3-c3cccc(OC)c3)c21 [13b] = 102

###

# System: PDL Fibroblasts
# test: SRB cytotoxicity on normal periodontal ligament fibroblasts, selective cytotoxicity
# Type: cell-based, Human
# condition-notes: IC50 on PDL fibroblasts divided by IC50 on K562
Label yes (1) when Selectivity index SI (K562) is at or above 10; anything below gets no (0).

- CCCCc1ccc(Nc2c(F)cc3c(=O)c(C(=O)O)cn(C4CC4)c3c2N)cc1: yes (1)
- COc1ccc(-n2nnc3c4c(cc(F)c32)c(=O)c(C(=O)O)cn4C2CC2)cc1: no (0)
- COc1ccccc1-n1nnc2c3c(cc(F)c21)c(=O)c(C(=O)O)cn3C1CC1: no (0)
- CCCCc1ccc(-n2nnc3c4c(cc(F)c32)c(=O)c(C(=O)O)cn4C2CC2)cc1: no (0)
